Origin of measurements: patent US4305940A

method-summary: in vivo
study-conditions: rat, in vivo, ip; 5 days; hydrochloride salts; range in parentheses; read-out: DL50 i.p.
From the text: The behavior of the animals has then been followed for a period of five days. The DL50 has been determined according to the method of I. T. Litchfield and F. Wilcoxon, (J. Pharmacol. Exper. Ther., 96, 99, 1949). The compound numbers in Table II correspond to the numbers in Table I.
Lab note: cut-off is 200 mg/kg. Strictly less in LD50 at 120 h is fulfilled. Exactly 200 mg/kg or more is not fulfilled.

                                    compound  discrete_label
 0  CCN(CC)Cc1cccc(C(=O)Nc2c(C)cccc2C)c1 [Compound 2]       fulfilled
 1  Cc1cccc(C)c1NC(=O)c1ccc(CN2CCOCC2)cc1 [Compound 12]   not fulfilled
 2  Cc1cccc(C)c1NC(=O)c1ccc(CN2CCCC2)cc1 [Compound 6]   not fulfilled
 3  CCN(CC)Cc1ccccc1C(=O)Nc1c(C)cccc1C(=O)OC [Compound 14]       fulfilled
 4  Cc1cccc(C)c1NC(=O)c1ccccc1CN1CCCC1 [Compound 4]       fulfilled
 5  Cc1cccc(C)c1NC(=O)c1cccc(CN2CCOCC2)c1 [Compound 11]   not fulfilled
 6  Cc1cccc(C)c1NC(=O)c1cccc(CN2CCCC2)c1 [Compound 5]   not fulfilled
 7  Cc1cccc(C)c1NC(=O)c1ccccc1CN1CCOCC1 [Compound 10]   not fulfilled
 8  Cc1cccc(C)c1NC(=O)c1ccccc1CN1CCCCC1 [Compound 7]       fulfilled
 9  CCN(CC)Cc1ccccc1C(=O)Nc1c(C)cccc1Cl [Compound 13]       fulfilled
10  CCN(CC)Cc1ccc(C(=O)Nc2c(C)cccc2C)cc1 [Compound 3]       fulfilled
11  Cc1cccc(C)c1NC(=O)c1ccc(CN2CCCCC2)cc1 [Compound 9]   not fulfilled
12  CCN(CC)Cc1ccccc1C(=O)Nc1c(C)cccc1C [Compound 1]       fulfilled

====

Test system: Swiss rats
method-summary: in vivo
study-conditions: lidocaine = 1
Cut-off 0.2 on DL50 i.p. relative to lidocaine: below means 1.0, at or above means 0.0.

>>> df
                                   molecule  discrete_label
0  Cc1cccc(C)c1NC(=O)c1cccc(CN2CCCC2)c1 [Compound 5]             0.0
1  Cc1cccc(C)c1NC(=O)c1ccccc1CN1CCCCC1 [Compound 7]             0.0
2  CCN(CC)Cc1ccccc1C(=O)Nc1c(C)cccc1C [Compound 1]             1.0
3  CCN(CC)Cc1ccccc1C(=O)Nc1c(C)cccc1C(=O)OC [Compound 14]             1.0
4  CCN(CC)Cc1ccc(C(=O)Nc2c(C)cccc2C)cc1 [Compound 3]             0.0

====

Test system: corneal reflux
method-summary: Surface anaesthesia (corneal reflux, conjunctival sac)
study-conditions: analogous to therapeutic index; DL50 i.p.
property-label: Surface anaesthesia DL50/CE50

                                smiles_input                 property_label  reading
 0        Cc1cccc(C)c1NC(=O)c1ccccc1CN1CCCC1  Surface anaesthesia DL50/CE50       30
 1       Cc1cccc(C)c1NC(=O)c1ccccc1CN1CCOCC1  Surface anaesthesia DL50/CE50       34
 2      Cc1cccc(C)c1NC(=O)c1ccc(CN2CCCC2)cc1  Surface anaesthesia DL50/CE50       13
 3     Cc1cccc(C)c1NC(=O)c1ccc(CN2CCCCC2)cc1  Surface anaesthesia DL50/CE50      109
 4       Cc1cccc(C)c1NC(=O)c1ccccc1CN1CCCCC1  Surface anaesthesia DL50/CE50      290
 5  CCN(CC)Cc1ccccc1C(=O)Nc1c(C)cccc1C(=O)OC  Surface anaesthesia DL50/CE50       60
 6       CCN(CC)Cc1ccccc1C(=O)Nc1c(C)cccc1Cl  Surface anaesthesia DL50/CE50       27
 7     Cc1cccc(C)c1NC(=O)c1cccc(CN2CCCCC2)c1  Surface anaesthesia DL50/CE50       73
 8      Cc1cccc(C)c1NC(=O)c1cccc(CN2CCCC2)c1  Surface anaesthesia DL50/CE50        9
 9      CCN(CC)Cc1ccc(C(=O)Nc2c(C)cccc2C)cc1  Surface anaesthesia DL50/CE50       17
10     Cc1cccc(C)c1NC(=O)c1cccc(CN2CCOCC2)c1  Surface anaesthesia DL50/CE50       22
11      CCN(CC)Cc1cccc(C(=O)Nc2c(C)cccc2C)c1  Surface anaesthesia DL50/CE50      163
12     Cc1cccc(C)c1NC(=O)c1ccc(CN2CCOCC2)cc1  Surface anaesthesia DL50/CE50       82
13        CCN(CC)Cc1ccccc1C(=O)Nc1c(C)cccc1C  Surface anaesthesia DL50/CE50       34
